Value source: patent US20210371503A1

Molecular target: T1, receptor-binding domain (RBD) of the spike (S) protein of SARS-CoV-2 (SARS-CoV-2, UniProt P0DTC2 319-541)
T1 construct: also called soluble RBD
Assay: ELISA, coated RBD [cont'd]
MEASURED METRIC: EC50

BINDER: HbnC4t1p1_D5 (antibody, V domains shown) VH: EVQLVESGGGLVQPGRSLRLSCAASGFTFDDYAMHWVRQAPGKGLEWVSGISWNSGSIGYADSVKGRFTISRDNAKNSLYLQMNSLRAEDTGLYYCAKDINYDSGGYHKNYFDYWGQGTLVTVSS VL: DIQMTQSPSSLSASVGDRATITCRASQSISSYLNWYQEKPGKAPKLLIYAASSLQSGVPSRFSGSGSGTDFTLTISSLQPEDFATYYCQQSYSNPLTFGGGTKVEIK
MEASURED METRIC: EC50
READOUT VALUE: < 1000 µg/mL
//
BINDER: HbnC2t1p2_D9 (antibody, V domains shown) VH: QVQLVESGGGVVQPGRSLRLSCAASGFTFSSYGMHWVRQAPGKGLEWVAVIWYDGRNKYYVDSVKGRFTISRDNSKNTLYLQISSLRAEDTAVYYCARAARRPVVTDTMAYYMDVWGKGTTVTVSS VL: EIVLTQSPATLSLSPGERATLSCRASLSLSSYLAWYQQKPGQAPRLLIYDASNRATGIPARFSGSGSGTDFTLTISSLEPEDFAVYYCQQRSNWPPTWTFGQGTKAEIKR
MEASURED METRIC: EC50
READOUT VALUE: < 1000 µg/mL

Quick one: give measured EC50 for FnC1t2p1_G5 (antibody, V domains shown) VH: QVQLVQSGSELKKPGASVKVSCKASGYTFLRFAMNWLRQAPGQGLEWMGWIDTNTGTPTYAQGFTGRFVFSLDTSVSTAYLQISSLKAEDTAVYYCARSLRGANLVPWGQGTLVTVSS VL: DIQMTQSPSSLSASVGDRVTITCQASQDVSNYLNWYQQQPGKAPKLLIYDAFNLETGVPSRFSGSGSGTDFTFTISSLQPEDIATYYCQQYDNLPLTFGGGTKVEIK < 100 µg/mL
